# STUDY_TARGET: Bromodomain-containing protein 4 (Homo sapiens)
# TEST_METHOD_NOTES: Binding affinity to human partial length BRD4 bromodomain 1/2 long isoform (N44 to E460 residues) expressed in bacterial expression system by BROMOscan assay
READOUT_KIND: pKd
Note: pKd values are expressed as the negative base-10 logarithm of concentration in M.

Incoming: API: value(readout= pKd, system= Bromodomain-containing protein 4 (Homo sapiens), query= COc1cc2c(cc1-c1c(C)noc1C)[nH]c1nc(C)nc(-c3ccnc4ccccc34)c12 )
Outgoing: 8.74

----------
# TEST_METHOD_NOTES: Drug level in SCID mouse at 25 mg/kg, po after 3 hrs by LC-MS/MS analysis
# Assay type: ADME, organism-based
# STUDY_CONDITIONS: in vivo, read-out: Drug uptake
READOUT_KIND: concentration at 3 h (ng/mL)
// units = ng/mL; emit number, no label

Incoming: Query: concentration at 3 h; subject: COc1cc2c(cc1-c1c(C)noc1C)[nH]c1ncnc(-c3c(C4CC4)n[nH]c3C)c12
Outgoing: 872

----------
So I've got a bunch of compounds here, and I need their pKi values.
# STUDY_TARGET: Bromodomain-containing protein 4 (Homo sapiens)
# TEST_METHOD_NOTES: Inhibition of FAM-labeled ZBA248 binding to recombinant human N-terminal His6-tagged BRD4 bromodomain 1 (44 to 168 residues) expressed in Rosetta2 DE3 cells after 30 mins by Flourescence polarization assay
# Format: biochemical
Note: pKi values are expressed as the negative base-10 logarithm of concentration in M.

Incoming: Query: pKi; subject: COc1cc2c(cc1-c1c(C)noc1C)[nH]c1nc(C)nc(-c3cc(C(F)(F)F)nc4ccccc34)c12
Outgoing: 6.91

Incoming: Entry to check: COc1cc2c(cc1-c1c(C)noc1C)[nH]c1ncnc(-c3c(C)[nH]c4cnccc34)c12
Outgoing: 8.38

Incoming: Entry to check: COc1cc2c(cc1-c1c(C)noc1C)[nH]c1ncnc(-c3cn[nH]c3)c12
Outgoing: 6.88

Incoming: Entry to check: COc1cc2c(cc1-c1c(C)noc1C)[nH]c1ncnc(-c3c(C)oc4ccccc34)c12
Outgoing: 8.03

Incoming: Entry to check: COc1cc2c(cc1-c1c(C)noc1C)[nH]c1ncnc(-n3cnc4ccccc43)c12
Outgoing: 8.00

Incoming: Entry to check: COc1cc2c(cc1-c1c(C)noc1C)[nH]c1nc(C)nc(-c3cccc4ccncc34)c12
Outgoing: 7.10

Incoming: Entry to check: COc1cc2c(cc1-c1c(C)noc1C)[nH]c1nc(C)nc(-c3cncc4ccccc34)c12
Outgoing: 8.02

Incoming: Entry to check: COc1cc2c(cc1-c1c(C)noc1C)[nH]c1ncnc(-c3c[nH]c4cnccc34)c12
Outgoing: 8.15

----------
# STUDY_TARGET: Protein polybromo-1 (Homo sapiens)
# Sequence (Q86U86 whole entry, the tested form may be a part): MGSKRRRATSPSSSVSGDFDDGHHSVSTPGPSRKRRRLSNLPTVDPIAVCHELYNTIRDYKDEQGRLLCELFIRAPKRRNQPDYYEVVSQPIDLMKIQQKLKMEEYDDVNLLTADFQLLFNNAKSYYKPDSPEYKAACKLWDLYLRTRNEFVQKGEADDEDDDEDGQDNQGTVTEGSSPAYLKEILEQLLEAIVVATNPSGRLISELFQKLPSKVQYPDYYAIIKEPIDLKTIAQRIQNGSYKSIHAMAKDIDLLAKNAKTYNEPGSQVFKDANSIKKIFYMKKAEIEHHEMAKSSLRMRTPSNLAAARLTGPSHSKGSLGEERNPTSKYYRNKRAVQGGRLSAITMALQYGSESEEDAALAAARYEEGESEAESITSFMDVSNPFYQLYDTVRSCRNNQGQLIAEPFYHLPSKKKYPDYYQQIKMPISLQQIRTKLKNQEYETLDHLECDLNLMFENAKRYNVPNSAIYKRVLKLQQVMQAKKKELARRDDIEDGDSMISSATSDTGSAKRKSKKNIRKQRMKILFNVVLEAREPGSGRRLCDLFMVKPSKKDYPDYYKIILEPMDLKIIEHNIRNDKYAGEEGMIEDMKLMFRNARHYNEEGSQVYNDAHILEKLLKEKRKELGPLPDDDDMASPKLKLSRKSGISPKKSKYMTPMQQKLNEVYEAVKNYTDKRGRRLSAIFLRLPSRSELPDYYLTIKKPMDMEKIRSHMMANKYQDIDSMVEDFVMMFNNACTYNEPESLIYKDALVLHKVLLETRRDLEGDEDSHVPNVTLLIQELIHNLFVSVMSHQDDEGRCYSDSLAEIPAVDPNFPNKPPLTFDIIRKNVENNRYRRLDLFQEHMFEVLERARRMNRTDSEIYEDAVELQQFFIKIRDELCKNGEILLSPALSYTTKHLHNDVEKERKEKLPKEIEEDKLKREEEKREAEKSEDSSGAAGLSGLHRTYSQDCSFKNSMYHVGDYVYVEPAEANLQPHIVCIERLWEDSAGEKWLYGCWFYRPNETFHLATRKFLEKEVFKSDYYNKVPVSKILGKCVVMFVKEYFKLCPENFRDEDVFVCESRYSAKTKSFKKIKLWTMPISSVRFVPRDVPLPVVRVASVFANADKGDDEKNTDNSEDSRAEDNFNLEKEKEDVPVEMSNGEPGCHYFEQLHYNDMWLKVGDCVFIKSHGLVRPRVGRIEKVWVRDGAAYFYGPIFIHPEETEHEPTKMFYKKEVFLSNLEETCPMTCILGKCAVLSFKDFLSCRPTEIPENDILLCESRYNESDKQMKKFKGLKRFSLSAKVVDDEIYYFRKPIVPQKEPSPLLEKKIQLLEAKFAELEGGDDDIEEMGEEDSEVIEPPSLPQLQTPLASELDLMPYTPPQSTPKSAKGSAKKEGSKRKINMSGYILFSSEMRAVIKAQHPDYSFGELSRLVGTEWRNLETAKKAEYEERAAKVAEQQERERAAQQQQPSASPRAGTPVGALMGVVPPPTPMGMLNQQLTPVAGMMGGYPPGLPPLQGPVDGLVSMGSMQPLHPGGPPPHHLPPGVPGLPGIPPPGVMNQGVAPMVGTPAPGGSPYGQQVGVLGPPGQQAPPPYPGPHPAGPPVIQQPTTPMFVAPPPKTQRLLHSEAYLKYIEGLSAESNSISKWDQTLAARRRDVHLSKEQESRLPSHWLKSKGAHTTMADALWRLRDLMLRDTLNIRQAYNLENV
# TEST_METHOD_NOTES: Binding affinity to human partial length PBRM1 bromodomain 2 (S178 to E291 residues) expressed in bacterial expression system by BROMOscan assay
pKd: −log10 of the molar value.
READOUT_KIND: pKd

Incoming: Query: pKd; subject: COc1cc2c(cc1-c1c(C)noc1C)[nH]c1nc(C)nc(-c3ccnc4ccccc34)c12
Outgoing: < 5.40

----------
# STUDY_TARGET: Bromodomain-containing protein 2 (Homo sapiens, UniProt P25440)
# Sequence (P25440 whole entry, the tested form may be a part, canonical isoform): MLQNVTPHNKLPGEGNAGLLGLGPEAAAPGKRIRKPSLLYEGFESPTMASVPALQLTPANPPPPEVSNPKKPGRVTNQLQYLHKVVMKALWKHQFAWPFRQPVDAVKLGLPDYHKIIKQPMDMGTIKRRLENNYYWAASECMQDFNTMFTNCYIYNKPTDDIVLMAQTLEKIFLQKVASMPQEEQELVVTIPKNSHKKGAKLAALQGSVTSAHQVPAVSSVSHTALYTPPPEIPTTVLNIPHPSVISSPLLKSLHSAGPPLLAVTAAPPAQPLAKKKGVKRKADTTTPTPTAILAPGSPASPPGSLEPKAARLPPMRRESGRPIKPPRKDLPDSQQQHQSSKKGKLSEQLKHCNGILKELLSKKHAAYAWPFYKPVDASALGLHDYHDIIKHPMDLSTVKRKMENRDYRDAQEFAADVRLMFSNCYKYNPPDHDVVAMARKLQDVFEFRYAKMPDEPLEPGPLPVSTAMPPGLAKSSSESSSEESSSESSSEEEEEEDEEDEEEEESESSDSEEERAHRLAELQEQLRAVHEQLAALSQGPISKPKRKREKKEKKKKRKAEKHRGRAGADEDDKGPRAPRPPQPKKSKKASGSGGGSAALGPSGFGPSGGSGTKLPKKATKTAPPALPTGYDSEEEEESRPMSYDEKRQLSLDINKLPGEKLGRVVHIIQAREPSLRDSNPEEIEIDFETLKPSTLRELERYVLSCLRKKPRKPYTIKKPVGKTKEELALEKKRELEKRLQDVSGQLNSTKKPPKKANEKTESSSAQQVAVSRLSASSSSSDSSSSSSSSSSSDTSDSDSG
# TEST_METHOD_NOTES: Binding affinity to human partial length BRD2 bromodomain 2 isoform 1 (349 to 460 residues) expressed in bacterial expression system by BROMOscan assay
READOUT_KIND: pKd
Note: pKd values are expressed as the negative base-10 logarithm of concentration in M.

Incoming: API: value(readout= pKd, system= Bromodomain-containing protein 2 (Homo sapiens, UniProt P25440), query= COc1cc2c(cc1-c1c(C)noc1C)[nH]c1nc(C)nc(-c3ccnc4ccccc34)c12 )
Outgoing: 9.05

This collection of values is drawn from ChEMBL document CHEMBL4184143.
